Quick reference for CLint scaled among some compounds
assay.protocol: Metabolic stability in human liver assessed as intrinsic clearance incubated for 60 mins in the presence of NADPH by LC-MS/MS analysis
Type: ADME, tissue-based
study.conditions: read-out: CLH
Reply with just the number (in mL/min/kg).

// solved cases for CLint scaled follow
INSERT INTO assay_data (chem_smiles, output_unit, test_result) VALUES
  ('CCC(=O)N1CCc2nc(Nc3ccc(C#N)cc3)nc(Oc3c(C)cc(C#N)cc3C)c2C1', 'mL/min/kg', 125),
  ('Cc1cc(/C=C/C#N)cc(C)c1Nc1ccnc(Nc2ccc(C#N)cc2)n1', 'mL/min/kg', 97.6);

Switching to the query record.
Query (compound): Cc1cc(C#N)cc(C)c1Oc1nc(Nc2ccc(C#N)cc2)nc(N)c1Br ; field requested: CLint scaled
19
